Measured DC50 accompanies every entry in the list below.
- TEST_TARGET: androgen receptor (Homo sapiens, UniProt P10275, T878A)
- Construct: host or cells: LNCaP.FGC
- Sequence (P10275 whole entry T878A): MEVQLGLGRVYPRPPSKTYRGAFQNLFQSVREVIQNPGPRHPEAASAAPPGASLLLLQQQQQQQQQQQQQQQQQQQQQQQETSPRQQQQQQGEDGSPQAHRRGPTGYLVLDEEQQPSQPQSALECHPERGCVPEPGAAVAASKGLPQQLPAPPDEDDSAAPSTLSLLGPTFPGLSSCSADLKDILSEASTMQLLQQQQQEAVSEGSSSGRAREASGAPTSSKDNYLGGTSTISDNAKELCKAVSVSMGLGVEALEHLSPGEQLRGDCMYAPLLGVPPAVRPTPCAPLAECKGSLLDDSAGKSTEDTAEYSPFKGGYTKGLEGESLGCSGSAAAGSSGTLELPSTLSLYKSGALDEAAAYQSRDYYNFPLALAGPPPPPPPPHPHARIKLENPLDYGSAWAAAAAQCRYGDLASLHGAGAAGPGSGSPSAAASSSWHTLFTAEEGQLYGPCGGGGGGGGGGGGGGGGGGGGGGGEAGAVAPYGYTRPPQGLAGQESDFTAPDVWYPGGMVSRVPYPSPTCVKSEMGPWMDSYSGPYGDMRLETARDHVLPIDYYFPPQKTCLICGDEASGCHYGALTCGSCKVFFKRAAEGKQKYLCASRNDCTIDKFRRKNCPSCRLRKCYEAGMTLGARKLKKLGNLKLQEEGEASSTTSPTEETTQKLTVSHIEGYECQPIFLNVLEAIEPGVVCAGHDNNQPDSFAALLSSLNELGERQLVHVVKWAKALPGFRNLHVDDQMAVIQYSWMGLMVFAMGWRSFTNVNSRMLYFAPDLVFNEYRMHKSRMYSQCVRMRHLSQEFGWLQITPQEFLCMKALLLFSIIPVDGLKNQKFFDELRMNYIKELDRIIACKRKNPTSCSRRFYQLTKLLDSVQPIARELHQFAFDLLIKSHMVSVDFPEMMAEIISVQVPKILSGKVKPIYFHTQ
- Sequence (Q96SW2 whole entry partner): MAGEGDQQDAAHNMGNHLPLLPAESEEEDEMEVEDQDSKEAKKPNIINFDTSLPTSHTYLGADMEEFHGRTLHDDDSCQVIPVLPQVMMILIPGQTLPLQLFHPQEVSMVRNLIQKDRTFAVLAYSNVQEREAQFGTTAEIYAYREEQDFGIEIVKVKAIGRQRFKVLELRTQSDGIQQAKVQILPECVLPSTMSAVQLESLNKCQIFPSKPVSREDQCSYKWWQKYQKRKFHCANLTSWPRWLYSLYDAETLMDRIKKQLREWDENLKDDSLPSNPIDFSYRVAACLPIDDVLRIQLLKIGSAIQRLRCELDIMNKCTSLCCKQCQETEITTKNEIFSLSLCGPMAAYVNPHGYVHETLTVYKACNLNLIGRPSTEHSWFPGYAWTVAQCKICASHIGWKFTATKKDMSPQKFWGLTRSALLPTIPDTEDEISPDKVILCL
- PROTOCOL_NOTES: Androgen receptor degradation assay using Western blot analysis
- Format: cell-based
- REPORTED_CONDITIONS: read-out: AR DC50 (concentration needed for 50% AR degradation); LNCaP.FGC cells, serial 10x dilutions from 100 nM

# annotated cases, reported DC50 shown
CCn1c2c(c3ccc(OCCN4CCC5(CC4)CCN(c4ccc(C(=O)N[C@H]6CC[C@H](N(C)c7ccc(C#N)c(Cl)c7)CC6)nn4)CC5)cc31)C(=O)N(C1CCC(=O)NC1=O)C2=O (some centres unmarked) | < 10 nM
N#Cc1ccc(O[C@H]2CC[C@H](NC(=O)c3ccc(N4CCN(CCCOc5ccc6c7c(n(CO)c6c5)C(=O)N(C5CCC(=O)NC5=O)C7=O)CC4)nn3)CC2)cc1Cl (some centres unmarked) | 25 to 100 nM
Cn1c2c(c3ccc(OCCN4CCC5(CC4)CCN(c4ccc(C(=O)N[C@H]6CC[C@H](N(C)c7ccc(C#N)c(Cl)c7)CC6)nn4)CC5)cc31)C(=O)N(C1CCC(=O)NC1=O)C2=O (some centres unmarked) | 10 to 25 nM
Cn1c2c(c3ccc(OCCOC4CC5(CCN(c6ccc(C(=O)N[C@H]7CC[C@H](N(C)c8ccc(C#N)c(Cl)c8)CC7)nn6)C5)C4)cc31)C(=O)N(C1CCC(=O)NC1=O)C2=O (some centres unmarked) | 10 to 25 nM
CCn1c2c(c3ccc(OCCCN4CCC5(CCN(c6ccc(C(=O)N[C@H]7CC[C@H](Oc8ccc(C#N)c(Cl)c8)CC7)nn6)C5)C4)cc31)C(=O)N(C1CCC(=O)NC1=O)C2=O (some centres unmarked) | 10 to 25 nM
Cn1c2c(c3ccc(OCCOC4CC5(CCN(c6ccc(C(=O)N[C@H]7CC[C@H](N(C)c8ccc(C#N)c(Cl)c8)CC7)nn6)CC5)C4)cc31)C(=O)N(C1CCC(=O)NC1=O)C2=O (some centres unmarked) | 25 to 100 nM

Quote DC50 reported for CCn1c2c(c3ccc(OCC(=O)NCC4CCN(c5ccc(C(=O)N[C@H]6CC[C@H](N(C)c7ccc(C#N)c(Cl)c7)CC6)nn5)CC4)cc31)C(=O)N(C1CCC(=O)C(CO)C1=O)C2=O (some centres unmarked) please.
25 to 100 nM

Using the record for CCn1c2c(c3ccc(OCCN4CCN(c5ccc(C(=O)N[C@H]6CC[C@H](Oc7ccc(C#N)c(Cl)c7)CC6)nn5)CC4)cc31)C(=O)N(C1CCC(=O)NC1=O)C2=O (some centres unmarked) , state its measured DC50.
10 to 25 nM

Report measured DC50; entry is CCn1c2c(c3ccc(OCC(C)COC4CCN(c5ccc(C(=O)N[C@H]6CC[C@H](Oc7ccc(C#N)c(Cl)c7)CC6)nn5)CC4)cc31)C(=O)N(C1CCC(=O)NC1=O)C2=O (some centres unmarked)
10 to 25 nM

State, in one line, measured DC50 of CCn1c2c(c3ccc(OCCOCC4CCN(c5ccc(C(=O)N[C@H]6CC[C@H](N(C)c7ccc(C#N)c(Cl)c7)CC6)nn5)CC4)cc31)C(=O)N(C1CCC(=O)NC1=O)C2=O (some centres unmarked)
25 to 100 nM

Return DC50 (reported value) for this compound: CCn1c2c(c3ccc(OCCN4C[C@H](C)N(c5ccc(C(=O)N[C@H]6CC[C@H](Oc7ccc(C#N)c(Cl)c7)CC6)nn5)C[C@H]4C)cc31)C(=O)N(C1CCC(=O)NC1=O)C2=O (some centres unmarked)
25 to 100 nM

Note down DC50 recorded for CCn1c2c(c3ccc(OCCCN4CCC5(CC4)CN(c4ccc(C(=O)N[C@H]6CC[C@H](Oc7ccc(C#N)c(Cl)c7)CC6)nn4)C5)cc31)C(=O)N(C1CCC(=O)NC1=O)C2=O (some centres unmarked)
< 10 nM

Please give measured DC50 of the following entry: Cn1c2c(c3ccc(OCCCCOC4CCN(c5ccc(C(=O)N[C@H]6CC[C@H](N(C)c7ccc(C#N)c(Cl)c7)CC6)nn5)CC4)cc31)C(=O)N(C1CCC(=O)NC1=O)C2=O (some centres unmarked)
10 to 25 nM

Give the reported value of DC50 for this record: CCn1c2c(c3ccc(OCCCN4CCN(c5ccc(C(=O)N[C@H]6CC[C@H](Oc7ccc(C#N)c(Cl)c7)CC6)nn5)CC4)cc31)C(=O)N(C1CCC(=O)NC1=O)C2=O (some centres unmarked) [Compound 205]
< 10 nM

Tell me its DC50 given CCn1c2c(c3ccc(OCCOC4CCN(c5ccc(C(=O)N[C@H]6CC[C@H](Oc7ccc(C#N)c(Cl)c7)CC6)nn5)CC4)cc31)C(=O)N(C1CCC(=O)NC1=O)C2=O (some centres unmarked) as the entry.
10 to 25 nM

Given the compound CCn1c2c(c3ccc(OCCCOC4CC5(CCN(c6ccc(C(=O)N[C@H]7CC[C@H](N(C)c8ccc(C#N)c(Cl)c8)CC7)nn6)C5)C4)cc31)C(=O)N(C1CCC(=O)NC1=O)C2=O (some centres unmarked) , write its reported DC50.
25 to 100 nM

Name the recorded DC50 of the compound listed here: CCn1c2c(c3cc(OCCN4CCC(C#Cc5ccc(C(=O)NC6C(C)(C)C(Oc7ccc(C#N)c(Cl)c7)C6(C)C)cc5)CC4)ccc31)C(=O)N(C1CCC(=O)NC1=O)C2=O (centres unmarked)
25 to 100 nM

Look up and report measured DC50 for this entry: CCn1c2c(c3ccc(OC4CCN(CC5CN(c6ccc(C(=O)N[C@H]7CC[C@H](Oc8ccc(C#N)c(Cl)c8)CC7)nn6)C5)CC4)cc31)C(=O)N(C1CCC(=O)NC1=O)C2=O (some centres unmarked)
10 to 25 nM

Answer with the recorded DC50 for the compound listed here: CCn1c2c(c3ccc(OCCOCCN4CCN(c5ccc(C(=O)N[C@H]6CC[C@H](Oc7ccc(C#N)c(Cl)c7)CC6)nn5)CC4)cc31)C(=O)N(C1CCC(=O)NC1=O)C2=O (some centres unmarked) [Compound 115]
25 to 100 nM

Using the record for CCn1c2c(c3ccc(OCCCN4CCC5(CC4)CCN(c4ccc(C(=O)N[C@H]6CC[C@H](Oc7ccc(C#N)c(Cl)c7)CC6)nn4)CC5)cc31)C(=O)N(C1CCC(=O)NC1=O)C2=O (some centres unmarked) , state its measured DC50.
10 to 25 nM

src = patent US20250197409A1
